- assayedTarget: Serotonin 2 (5-HT2) receptor (Rattus norvegicus, UniProt P30994+P08909+P14842)
- procedureText: Binding affinity against 5-hydroxytryptamine 2 receptor in rat brain using [3H]ketanserin as radioligand
- Type: tissue-based
For each entry below, report its log10 of IC50 value.
Values are log10 of IC50 in µM.

Worked examples follow.
COc1cccc2c1CCCC2CNCCN1CCN(c2ccccc2)CC1 (stereo unspecified)
0.28
COc1ccccc1N1CCN(CCNC2CCCc3c(OC)cccc32)CC1 (stereo unspecified)
0.41
COc1cccc2c1CCCC2C(=O)N(C)CCN1CCN(c2ccccc2)CC1 (stereo unspecified)
-0.07
COc1cccc2c1CCCC2C(=O)NCCN1CCN(c2ccccc2)CC1 (stereo unspecified)
0.19
COc1cccc2c1CCCC2C(=O)NCCCN1CCN(c2ccccn2)CC1 (stereo unspecified)
-0.37

Go through the items and report each one's log10 of IC50.
1. COc1cccc2c1CCCC2C(=O)N(C)CCCN1CCN(c2ccccc2)CC1 (stereo unspecified)
2. COc1cccc2c1CCCC2NCCCN1CCN(c2ccccc2)CC1 (stereo unspecified)
3. COc1cccc2c1CCCC2NC(=O)CCN1CCN(c2ccccc2)CC1 (stereo unspecified)
4. COc1cccc2c1CCCC2CCCN1CCN(c2ccccc2)CC1 (stereo unspecified)

[A]
1: -0.87; 2: 0.43; 3: 0.08; 4: -0.64
